# credit: patent US8017646B2

Where a name gives a salt, the structure may show the parent alone.
Measurement record for human histamine H3 receptors (Homo sapiens); quantity recorded: Ki.
Provide the reading as a plain figure in nM.

# annotated cases, reported Ki shown
COc1cc(F)ccc1CCCOCCCN1CCCC1 [Example 11, oxalate]: 0.38
C(=C\c1ccc2c(c1)OCO2)/COCCCN1CCCC1 [Example 14, oxalate]: 4.7

Field: next molecule
Input: So what does the record say about Ki for COc1cc(CCCOCCCN2CCCC2)ccc1F [Example 9, oxalate] ?
Output: 1.7

###

Target: human histamine H3 receptors (Homo sapiens)
Sequence (Q9Y5N1 whole entry): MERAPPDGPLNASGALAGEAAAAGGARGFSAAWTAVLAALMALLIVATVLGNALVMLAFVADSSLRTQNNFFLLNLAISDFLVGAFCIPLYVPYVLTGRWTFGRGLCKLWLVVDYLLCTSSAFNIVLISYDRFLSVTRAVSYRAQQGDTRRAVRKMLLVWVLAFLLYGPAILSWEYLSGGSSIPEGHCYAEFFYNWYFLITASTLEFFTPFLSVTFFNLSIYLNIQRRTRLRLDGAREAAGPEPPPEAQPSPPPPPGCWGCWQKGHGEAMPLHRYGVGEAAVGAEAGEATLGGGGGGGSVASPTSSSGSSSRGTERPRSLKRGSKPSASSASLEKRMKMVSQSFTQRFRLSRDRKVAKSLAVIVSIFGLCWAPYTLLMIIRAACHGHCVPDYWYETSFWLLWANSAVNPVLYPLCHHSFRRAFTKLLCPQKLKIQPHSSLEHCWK
reported-metric: Kd (pM)
Provide the reading as a plain figure in pM.

Input: Query Kd on human histamine H3 receptors (Homo sapiens) for Ic1ccc(COCCCc2cnc[nH]2)cc1 [[^125]iodoproxyfan, reference compound]
Output: 78

###

Entries annotated with measured IC50
Target: CYP2D6 (Homo sapiens)
Sequence (P10635 whole entry): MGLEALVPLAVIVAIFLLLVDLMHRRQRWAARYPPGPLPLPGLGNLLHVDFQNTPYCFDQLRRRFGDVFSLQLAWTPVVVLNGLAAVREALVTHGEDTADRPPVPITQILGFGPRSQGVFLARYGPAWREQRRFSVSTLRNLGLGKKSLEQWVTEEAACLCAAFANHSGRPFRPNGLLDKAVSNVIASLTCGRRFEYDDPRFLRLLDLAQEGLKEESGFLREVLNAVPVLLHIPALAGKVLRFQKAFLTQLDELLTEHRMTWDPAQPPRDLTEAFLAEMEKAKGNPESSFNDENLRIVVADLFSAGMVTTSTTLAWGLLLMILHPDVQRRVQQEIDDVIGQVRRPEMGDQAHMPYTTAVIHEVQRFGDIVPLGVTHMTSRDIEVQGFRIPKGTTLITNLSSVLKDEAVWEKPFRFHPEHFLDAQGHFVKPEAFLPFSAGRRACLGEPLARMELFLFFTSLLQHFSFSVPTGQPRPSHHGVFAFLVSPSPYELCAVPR
Experiment: Cytochrome inhibition, fluorometric assay, CYP2D6
Type: biochemical
Conditions: human recombinant CYP2D6, substrate AMMC; read-out: cytochrome inhibition (IC50, concentrations for 50% inhibition) CYP2D6
Where a name gives a salt, the structure may show the parent alone.

Cc1ccc(CCCOCCCN2CCCCC2)cc1 [Example 4, oxalate]: > 10 µM
COc1ccc(/C=C/COCCCN2CCCCC2)cc1OC.O=C(O)C(=O)O [Example 2, oxalate]: > 10 µM
COc1ccc(CCCOCCCN2CCCC2)cc1OC [Example 1, oxalate]: > 10 µM
COc1cc(F)ccc1CCCOCCCN1CCCC1 [Example 11, oxalate]: 18 µM
C(=C\c1ccc2c(c1)OCCO2)/COCCCN1CCCCC1.O=C(O)C(=O)O [Example 13]: > 10 µM
COc1cc(CCCOCCCN2CCCC2)ccc1F [Example 9, oxalate]: > 100 µM
Fc1ccc(CCCOCCCN2CCCC2)cc1.O=C(O)C(=O)O [Example 7, oxalate]: 81 µM
COc1cc(CCCOCCCN2CCCCC2)ccc1O [Example 6, oxalate]: > 1 µM
COc1ccc(CCCOCCCN2CCCCC2)cc1OC [Example 3, oxalate]: > 10 µM
c1ccc2cc(CCCOCCCN3CCCCC3)ccc2c1 [Example 5]: > 1 µM

Input: So what does the record say about IC50 for C(=C\c1ccc2occc2c1)/COCCCN1CCCC1 [Example 12, oxalate] ?
Output: > 1 µM

Input: So what does the record say about IC50 for C(=C\c1ccc2c(c1)OCO2)/COCCCN1CCCC1 [Example 14, oxalate] ?
Output: 4.4 µM

Input: So what does the record say about IC50 for COc1cc(/C=C/COCCCN2CCCC2)ccc1F [Example 8, oxalate] ?
Output: > 1 µM

Input: So what does the record say about IC50 for Cc1cc(CCCOCCCN2CCCC2)ccc1F [Example 10, oxalate] ?
Output: > 1 µM

###

Target: CYP3A4 (Homo sapiens, UniProt P08684)
Sequence (P08684 whole entry): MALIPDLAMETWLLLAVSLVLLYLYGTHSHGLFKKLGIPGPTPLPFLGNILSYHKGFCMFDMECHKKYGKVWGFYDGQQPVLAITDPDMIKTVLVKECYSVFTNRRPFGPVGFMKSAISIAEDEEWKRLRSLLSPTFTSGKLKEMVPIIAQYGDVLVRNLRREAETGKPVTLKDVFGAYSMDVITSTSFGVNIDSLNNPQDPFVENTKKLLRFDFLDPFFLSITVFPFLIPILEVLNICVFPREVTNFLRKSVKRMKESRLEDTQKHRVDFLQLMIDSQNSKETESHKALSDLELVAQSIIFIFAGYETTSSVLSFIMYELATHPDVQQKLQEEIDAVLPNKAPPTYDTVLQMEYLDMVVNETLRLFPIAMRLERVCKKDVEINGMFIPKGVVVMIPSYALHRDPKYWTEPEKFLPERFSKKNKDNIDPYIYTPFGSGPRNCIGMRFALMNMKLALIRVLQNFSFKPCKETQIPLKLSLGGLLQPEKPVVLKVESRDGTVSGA
Test: Cytochrome inhibition, fluorometric assay, CYP3A4
Conditions: human recombinant CYP3A4, substrate BFC; read-out: cytochrome inhibition (IC50, concentrations for 50% inhibition) CYP3A4
pIC50: −log10 of the molar value. Where a name gives a salt, the structure may show the parent alone.
Entries annotated with measured pIC50

# annotated cases, reported pIC50 shown
C(=C\c1ccc2occc2c1)/COCCCN1CCCC1 [Example 12, oxalate]: < 5.00
COc1cc(F)ccc1CCCOCCCN1CCCC1 [Example 11, oxalate]: 4.64
COc1cc(/C=C/COCCCN2CCCC2)ccc1F [Example 8, oxalate]: < 5.00

Input: So what does the record say about pIC50 for COc1ccc(CCCOCCCN2CCCC2)cc1OC [Example 1, oxalate] ?
Output: < 5.00
